These data points were gathered from patent US20260078159A1.

# assay.system: T1, human PD1 on cells (human, UniProt Q15116 25-288)
# T1 construct: HEK 293T cells stably expressing the human PD1 gene (Crown Bioscience) in flow cytometry; also called HEK293-hPD1; PD1+ HEK293 cells
# T1 sequence (Q15116 25-288 limits assumed): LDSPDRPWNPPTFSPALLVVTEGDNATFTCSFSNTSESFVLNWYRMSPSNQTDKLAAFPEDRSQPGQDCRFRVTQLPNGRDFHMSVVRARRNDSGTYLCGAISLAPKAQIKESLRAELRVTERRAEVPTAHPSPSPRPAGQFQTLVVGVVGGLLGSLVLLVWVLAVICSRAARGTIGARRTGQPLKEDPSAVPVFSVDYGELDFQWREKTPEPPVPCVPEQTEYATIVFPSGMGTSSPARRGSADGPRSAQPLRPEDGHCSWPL
# protocol.notes: flow cytometry on PD1+ HEK293 cells, % positive cells
Recorded pEC50 by entry
A value of pEC50 is the negative decimal logarithm of a concentration given in moles per litre.

Recorded pEC50, per entry:
INSERT INTO measurements (binder, result_value) VALUES
  ('P-1193 (antibody, human IgG1, kappa, V domains shown, Full-length IgG1 L234A/L235A/G237A, kappa) VH: EVQLLESGGGLVQPGGSLRLSCAASGFTFTNYYMYWVRQAPGKGLEWVSGINPSNGGTNFADKFKGRFTISRDNSKNTLYLQMNSLRAEDTAVYYCARRDYRFDMGFDYWGQGTLVTVSS VL: EIVLTQSPATLSLSPGERATLSCRASQGVSTSGYSYLHWYQQKPGQAPRLLIYLASYRESGVPARFSGSGSGTDFTLTISSLEPEDFAVYYCQHSRDLPLTFGGGTKVEIKR', 10.15),
  ('P-1199 (antibody, human IgG1, kappa, V domains shown, Full-length IgG1 L234A/L235A/G237A, kappa) VH: EVQLLESGGGLVQPGGSLRLSCAASGFTFTNYYMYWVRQAPGKGLEWVSGINPSNGGTNFADKFKGRFTISTDSSKNTLYLQMNSLRAEDTAVYYCARRDYRFDMGFDYWGQGTLVTVSS VL: EIVLTQSPATLSLSPGERATLSCRASQGVSTSGYSYLHWYQQKPGQAPRLLIYLASYRESGVPARFSGSGSGTDFTLTISSLEPEDFAVYYCQHSRDLPLTFGGGTKVEIKR', 10.80);

The value of pEC50 measured for the binder P-1201 (antibody, human IgG1, kappa, V domains shown) VH: EVQLLESGGGLVQPGGSLRLSCAASGFTFTNYYMYWVRQAPGKGLEWVSGINPSNGGTNFADKFKGRFTLSTDSSKNTLYLQMNSLRAEDTAVYYCARRDYRFDMGFDYWGQGTLVTVSS VL: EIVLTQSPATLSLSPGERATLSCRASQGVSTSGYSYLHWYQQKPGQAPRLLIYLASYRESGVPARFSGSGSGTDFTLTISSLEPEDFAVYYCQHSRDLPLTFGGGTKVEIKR turned out to be 10.48
